From: ChEMBL document CHEMBL1137328

- experimental-target: Caspase-3 (Homo sapiens)
- Sequence (P42574 whole entry): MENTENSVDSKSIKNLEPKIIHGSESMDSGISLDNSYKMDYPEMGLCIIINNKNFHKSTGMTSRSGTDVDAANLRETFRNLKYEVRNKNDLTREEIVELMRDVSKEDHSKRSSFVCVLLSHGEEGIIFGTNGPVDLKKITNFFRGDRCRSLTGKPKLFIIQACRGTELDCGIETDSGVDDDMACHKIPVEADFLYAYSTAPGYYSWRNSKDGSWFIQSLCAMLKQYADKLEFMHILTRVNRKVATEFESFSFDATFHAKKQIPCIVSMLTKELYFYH
metric-name: Ki (nM)

Illustrative cases are given below, each with its answer.
- smiles-repr: "Cc1ccc(S(=O)(=O)OCCOc2ccc(CN3C(=O)C(=O)c4cc(S(=O)(=O)N5CCC[C@H]5COc5ccccc5)ccc43)cc2)cc1"
  metric-name: "Ki"
  unit-info: "nM"
  assay-result: 8.6
- smiles-repr: "COC[C@@H]1CCCN1S(=O)(=O)c1ccc2c(c1)C(=O)C(=O)N2Cc1ccc(OCCF)cc1"
  metric-name: "Ki"
  unit-info: "nM"
  assay-result: 17.9
- smiles-repr: "O=C1Nc2ccc(S(=O)(=O)N3CCC[C@H]3COc3ccccc3)cc2C1=O"
  metric-name: "Ki"
  unit-info: "nM"
  assay-result: 8.3
- smiles-repr: "COC[C@@H]1CCCN1S(=O)(=O)c1ccc2c(c1)C(=O)C(=O)N2Cc1ccc(OCCOS(=O)(=O)c2ccc(C)cc2)cc1"
  metric-name: "Ki"
  unit-info: "nM"
  assay-result: 0.8
- smiles-repr: "CC(C)(C)[Si](C)(C)Oc1ccc(CN2C(=O)C(=O)c3cc(S(=O)(=O)N4CCC[C@H]4COc4ccccc4)ccc32)cc1"
  metric-name: "Ki"
  unit-info: "nM"
  assay-result: 9.8
- smiles-repr: "COC[C@@H]1CCCN1S(=O)(=O)c1ccc2c(c1)C(=O)C(=O)N2Cc1ccc(O[Si](C)(C)C(C)(C)C)cc1"
  metric-name: "Ki"
  unit-info: "nM"
  assay-result: 1.9

[I] O=C1C(=O)N(Cc2ccc(OCCBr)cc2)c2ccc(S(=O)(=O)N3CCC[C@H]3COc3ccccc3)cc21
[II] COC[C@@H]1CCCN1S(=O)(=O)c1ccc2c(c1)C(=O)C(=O)N2C
Consider I and II . Which of these has its Ki at a higher number? Mark your answer with the label of the selected entry.
I
